# IC50 values compiled below
TARGET UNDER TEST: Prostaglandin G/H synthase 2 (Homo sapiens, UniProt P35354)
Sequence (P35354 whole entry): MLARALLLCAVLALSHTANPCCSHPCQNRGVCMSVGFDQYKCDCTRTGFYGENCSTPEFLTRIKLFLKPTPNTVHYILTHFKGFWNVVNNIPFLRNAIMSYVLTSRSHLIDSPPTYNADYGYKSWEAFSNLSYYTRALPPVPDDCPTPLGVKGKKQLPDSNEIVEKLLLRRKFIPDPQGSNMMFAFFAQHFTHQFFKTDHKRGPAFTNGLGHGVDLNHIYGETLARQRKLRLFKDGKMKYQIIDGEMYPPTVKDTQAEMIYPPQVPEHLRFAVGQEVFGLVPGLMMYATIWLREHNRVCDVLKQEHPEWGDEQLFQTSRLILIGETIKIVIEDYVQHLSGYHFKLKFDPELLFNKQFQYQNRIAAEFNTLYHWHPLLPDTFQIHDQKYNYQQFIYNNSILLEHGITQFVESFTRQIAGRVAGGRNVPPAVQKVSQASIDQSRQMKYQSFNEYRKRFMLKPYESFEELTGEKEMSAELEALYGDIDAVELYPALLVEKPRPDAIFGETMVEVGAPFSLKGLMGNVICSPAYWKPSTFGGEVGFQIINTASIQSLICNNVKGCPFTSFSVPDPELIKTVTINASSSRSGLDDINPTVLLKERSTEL
TEST PROTOCOL: Inhibition of human COX2 in IL1-beta treated human FF cells assessed as blockade of SnCl2-mediated PGH2 to PGF2alpha conversion after 50 mins by ELISA
Format: cell-based

Query: Consider the compound Cc1ccc(-c2ccc(NC(=O)C3=C(O)c4ccccc4S(=O)(=O)N3)cc2)cc1C and give its recorded IC50.
Reply: > 57.7 µM

* * *

TARGET UNDER TEST: Prostaglandin G/H synthase 2 (Homo sapiens)
TEST PROTOCOL: Inhibition of human recombinant COX2
# pIC50 values compiled below
API: returns pIC50 as number; meaning -log10 of concentration in mol/L.

O=C(Nc1ccc(-c2ccc(Cl)c(Cl)c2)cc1)C1=C(O)c2ccccc2S(=O)(=O)N1; 3.58

Here is the next item to consider.
Query: Consider the molecule O=C(Nc1ccc(CCc2ccc(Cl)c(Cl)c2)cc1)C1=C(O)c2ccccc2S(=O)(=O)N1 and give its recorded pIC50.
Reply: 3.33

* * *

TEST PROTOCOL: Aqueous solubility assessed as nitrogen content after 24 hrs
Format: physicochemical
OBSERVATION TYPE: solubility at 24 h

Query: Consider the compound O=C(Nc1ccc(-c2ccc(Cl)c(Cl)c2)cc1)C1=C(O)c2ccccc2S(=O)(=O)N1 and give its recorded solubility at 24 h.
Reply: < 3 µM

* * *

TARGET UNDER TEST: Prostaglandin E synthase (Homo sapiens)
Sequence (O14684 whole entry): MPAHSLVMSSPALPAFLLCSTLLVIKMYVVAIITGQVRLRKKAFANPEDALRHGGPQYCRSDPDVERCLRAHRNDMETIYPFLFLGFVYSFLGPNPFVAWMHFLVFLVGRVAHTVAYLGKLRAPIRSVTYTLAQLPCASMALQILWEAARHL
TEST PROTOCOL: Inhibition of human mPGES1 assessed as PGE2 level after 41 sec by ELISA
OBSERVATION TYPE: log10 IC50 (log10 of the value in nM)
Scale: decimal log of IC50, IC50 in nM.

Worked cases, answers included:
O=C(Nc1ccc(-c2ccc(Cl)c(Cl)c2)nc1)C1=C(O)c2ccccc2S(=O)(=O)N1; 2.20
O=C(Nc1ccc(-c2cccc(Cl)c2)cc1)C1=C(O)c2ccccc2S(=O)(=O)N1; 2.93
O=C(Nc1ccc(Nc2ccc(Cl)cc2)cc1)C1=C(O)c2ccccc2S(=O)(=O)N1; 2.18
COc1ccc(-c2ccc(NC(=O)C3=C(O)c4ccccc4S(=O)(=O)N3)cc2)cc1OC; 4.51
O=C(Nc1ccc(-c2ccc(Cl)cc2Cl)cc1)C1=C(O)c2ccccc2S(=O)(=O)N1; 1.63

Query: Consider the compound O=C(Nc1ccc(-c2ccc(Cl)c(Cl)c2)cc1)C1=C(O)c2ccccc2S(=O)(=O)N1 and give its recorded log10 IC50.
Reply: 1.20

Query: Consider the compound O=C(Nc1ccc(Oc2ccc(Cl)cc2)cc1)C1=C(O)c2ccccc2S(=O)(=O)N1 and give its recorded log10 IC50.
Reply: 2.72

Query: Consider the compound O=C(CNS(=O)(=O)c1ccccc1C(=O)O)Nc1ccc(-c2ccc(Cl)c(Cl)c2)cc1 and give its recorded log10 IC50.
Reply: 3.76
